Cited source for all entries: patent US20230118024A1

Assignment: determine reported FIG. 30 FACS value (IC17=0, DQN0139bb=100) for the given binders.
- system-under-test: T1, HLA-DQ2.5 on HLA-DQ2.5 positive PBMC-B cells (human, UniProt P01909 24-254; P01920 33-261)
- T1 construct: also called DQ2.5 + PBMC; HLA-DQ2.5+PBMC B cell
- T1 MHC II alpha: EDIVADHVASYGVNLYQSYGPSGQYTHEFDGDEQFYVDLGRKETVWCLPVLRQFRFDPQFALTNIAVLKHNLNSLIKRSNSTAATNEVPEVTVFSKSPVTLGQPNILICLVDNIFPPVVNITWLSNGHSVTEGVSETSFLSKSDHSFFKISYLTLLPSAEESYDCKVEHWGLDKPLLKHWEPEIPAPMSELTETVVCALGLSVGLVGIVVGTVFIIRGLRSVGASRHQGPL
- T1 MHC II beta: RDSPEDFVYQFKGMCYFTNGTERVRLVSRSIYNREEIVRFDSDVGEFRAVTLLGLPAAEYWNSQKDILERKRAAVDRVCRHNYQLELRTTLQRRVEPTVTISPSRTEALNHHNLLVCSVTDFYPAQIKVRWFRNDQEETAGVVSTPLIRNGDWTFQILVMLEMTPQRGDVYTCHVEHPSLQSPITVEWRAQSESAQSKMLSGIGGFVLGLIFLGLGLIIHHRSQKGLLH
- test-summary: FACS
Numbers only.

Consider the binder shown here: DQN0271hh (antibody, human IgG1, kappa, V domains shown, also called DQN0271Lh) VH: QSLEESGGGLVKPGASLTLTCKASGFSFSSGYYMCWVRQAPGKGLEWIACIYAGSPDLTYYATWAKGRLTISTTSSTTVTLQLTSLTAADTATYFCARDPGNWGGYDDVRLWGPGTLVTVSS VL: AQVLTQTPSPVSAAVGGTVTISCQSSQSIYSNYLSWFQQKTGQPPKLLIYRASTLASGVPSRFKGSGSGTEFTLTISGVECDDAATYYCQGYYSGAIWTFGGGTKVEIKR What is its recorded FIG. 30 FACS value (IC17=0, DQN0139bb=100)?
0

Param item: DQN0225dd (antibody, human IgG1, kappa, V domains shown, also called DQN0225Hd; DQN0225Ld) VH: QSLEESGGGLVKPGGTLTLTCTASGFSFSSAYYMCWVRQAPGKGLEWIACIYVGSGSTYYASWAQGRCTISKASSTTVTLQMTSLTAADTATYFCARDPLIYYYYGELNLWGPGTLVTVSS VL: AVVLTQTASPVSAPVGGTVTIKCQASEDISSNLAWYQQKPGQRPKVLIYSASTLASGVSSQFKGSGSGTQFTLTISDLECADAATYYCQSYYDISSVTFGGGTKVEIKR
-0.1

Param item: DQN0282ff (antibody, human IgG1, kappa, V domains shown, also called DQN0282Hf; DQN0282Lf) VH: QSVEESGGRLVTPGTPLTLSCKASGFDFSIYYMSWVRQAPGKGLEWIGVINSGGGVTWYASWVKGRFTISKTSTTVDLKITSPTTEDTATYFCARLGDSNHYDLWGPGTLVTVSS VL: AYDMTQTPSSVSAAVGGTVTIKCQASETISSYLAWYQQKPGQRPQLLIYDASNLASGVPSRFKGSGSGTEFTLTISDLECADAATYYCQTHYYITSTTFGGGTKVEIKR
4.3

With those in mind, consider the next binder.
Consider the binder shown here: DQN0334bb (antibody, human IgG1, kappa, V domains shown, also called DQN0334Hb; DQN0334Lb) VH: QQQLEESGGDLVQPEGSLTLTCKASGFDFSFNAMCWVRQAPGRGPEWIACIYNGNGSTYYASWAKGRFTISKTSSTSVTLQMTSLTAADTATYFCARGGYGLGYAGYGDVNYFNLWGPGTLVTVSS VL: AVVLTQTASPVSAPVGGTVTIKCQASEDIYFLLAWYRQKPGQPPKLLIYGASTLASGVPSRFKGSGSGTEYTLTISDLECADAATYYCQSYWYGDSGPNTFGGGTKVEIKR What is its recorded FIG. 30 FACS value (IC17=0, DQN0139bb=100)?
0.8
